# IC50 per record follows
biological target: ETA (Oryctolagus cuniculus, UniProt A5A8K3); settings: ERBA-A IC50, [125I]-ET-1, rabbit renal artery vascular smooth muscle cells
Sequence (A5A8K3 21-427): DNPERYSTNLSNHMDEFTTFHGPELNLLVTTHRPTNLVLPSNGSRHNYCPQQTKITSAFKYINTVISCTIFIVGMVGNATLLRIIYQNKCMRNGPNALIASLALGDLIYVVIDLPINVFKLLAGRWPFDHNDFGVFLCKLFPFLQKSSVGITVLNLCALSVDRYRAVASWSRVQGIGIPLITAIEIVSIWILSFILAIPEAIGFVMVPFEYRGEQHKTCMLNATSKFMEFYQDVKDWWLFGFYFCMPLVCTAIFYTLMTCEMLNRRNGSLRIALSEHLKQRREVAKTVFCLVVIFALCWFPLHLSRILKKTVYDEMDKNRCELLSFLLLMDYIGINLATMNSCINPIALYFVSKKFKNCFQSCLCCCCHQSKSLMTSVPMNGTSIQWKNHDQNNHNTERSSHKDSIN
Structures can show the parent of a compound that is named as a salt.
Note: unit µM is implicit; provide only the numeric part.

// worked examples, IC50 included
[[record]]
compound = "COc1ccc(C2(O)OC(=O)C(c3cc(OC)cc(OC)c3)=C2Cc2cccnc2)cc1 (racemic) [Example 166, monohydrochloride]"
studytarget = "ETA (Oryctolagus cuniculus, UniProt A5A8K3)"
measuredquantity = "IC50"
resultvalue = 0.04

[[record]]
compound = "CCCOc1cccc(CC2=C(c3ccc4c(c3)OCO4)C(=O)OC2(O)c2ccc(OC)cc2)c1 (stereo not shown)"
studytarget = "ETA (Oryctolagus cuniculus, UniProt A5A8K3)"
measuredquantity = "IC50"
resultvalue = 0.012

[[record]]
compound = "Cc1cccc(CC2=C(c3ccc4c(c3)OCO4)C(=O)OC2(O)c2ccc(Cl)cc2)c1 (stereo not shown)"
studytarget = "ETA (Oryctolagus cuniculus, UniProt A5A8K3)"
measuredquantity = "IC50"
resultvalue = 1.3


// below: IC50 requested for another compound
-- ask Quickly give me recorded IC50 for COc1ccc(C2(O)OC(=O)C(c3ccc4c(c3)OCO4)=C2Cc2ccccc2)c(OC)c1 (stereo not shown)
-- reply 0.035

====

Biological target: human ETB receptor (Homo sapiens, UniProt P24530)
Construct: expressed in transfected cells; host or cells: CHO-K1 cells, pRc-CMW (so in the source) expression vector, electroporation; membranes used
Sequence (P24530 27-442): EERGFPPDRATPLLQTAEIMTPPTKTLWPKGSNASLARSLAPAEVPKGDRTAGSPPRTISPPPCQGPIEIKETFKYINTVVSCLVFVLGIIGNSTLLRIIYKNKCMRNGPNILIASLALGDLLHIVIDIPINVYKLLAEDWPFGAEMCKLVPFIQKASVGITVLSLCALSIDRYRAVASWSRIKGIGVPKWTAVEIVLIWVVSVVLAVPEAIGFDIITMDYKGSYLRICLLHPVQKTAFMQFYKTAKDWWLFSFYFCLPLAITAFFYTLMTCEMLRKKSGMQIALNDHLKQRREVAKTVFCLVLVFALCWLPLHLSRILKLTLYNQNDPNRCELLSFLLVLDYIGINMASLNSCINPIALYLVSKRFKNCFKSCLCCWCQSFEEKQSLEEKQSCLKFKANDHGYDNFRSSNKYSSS
Assay: ERBA-B: [125I]-ET-1 binding, recombinant human ETB receptor expressed in CHO-K1 cells
Details: human cloned ETB receptor, read-out: ERBA-B IC50, human cloned receptor data
Source text: Count filters for radioactivity in gamma counter. The above process has also been modified by using human recombinant CHO-K1 cells. The tissue used for human ETB was recombinant human ETB receptor expressed in CHO-K1 cells (chinese hamster ovary cells). The gene for human ETB receptor was cloned and inserted into the pRc-CMW expression vector, then transfected into CHO-K1 cells by electroporation. […]
Reported pIC50 values are given for each entry in this list.
FYI, pIC50 means -log10 of a concentration in mol per litre.

[[record]]
compound = "COc1ccc(C(=O)/C(Cc2ccc(OC(C)C)cc2)=C(\\C(=O)O)c2ccc3c(c2)OCO3)cc1 [Example 352]"
measuredquantity = "pIC50"
resultvalue = 5.90


-- ask Give pIC50 for the following compound: COc1ccc(C2(O)OC(=O)C(c3ccc4c(c3)OCO4)=C2Cc2ccc(OC(C)C)cc2)cc1 (stereo not shown) [Example 84]
-- reply 5.85
